Kindly supply the reported pIC50 values for the records listed here.
test system: Plasmodium falciparum; assay: Antimalarial activity against chloroquine-sensitive Plasmodium falciparum NF54 infected in RBC after 72 hrs by [3H]hypoxanthine incorporation assay in presence of 0.5 % albumax; format: functional, organism-based
Remember, pIC50 is on a log scale: it is -log10 of the molar concentration.

For CCCN(CCC)Cc1cc(Nc2ccc(C(=O)N[C@@H](Cc3ccccc3)[C@H](O)CN[C@H](C)c3ccccc3)cc2)ccc1O , what is its reported pIC50?
8.03

Fill in the blank: the reported pIC50 of C[C@@H](NC[C@@H](O)[C@H](Cc1ccccc1)NC(=O)c1ccc(N(C)c2ccncc2)cc1)c1ccccc1 is ____.
7.68
